test system: HL-60(TB) leukemia; assay: NCI-60 one-dose screen, 48 h (100 = growth as untreated, 0 = no growth, -100 = all killed); conditions: 10 µM unless noted
The panel holds about 83,000 compounds, 20% with a hit somewhere; the sample as a whole holds those more often.
PARAMETER: growth (%)
Numbers only, in %.

The cases that follow already have their growth on record.
{"columns": ["COMPOUND", "TARGET ENTITY", "READING UNIT", "growth"],
 "data": [
  ["Cc1nn(-c2ccc(Cl)cc2)c(C)c1N=Nc1ccc2oc(=O)ccc2c1", "HL-60(TB) leukemia", "%", 93.5],
  ["COC(=O)C1(C)CCC[C@]2(C)[C@H]3C[C@H]4C(C(C)C)=C[C@]3(CC[C@@H]12)[C@H]1[C@@H]4[C@@H](OC(=O)c2ccco2)CC[C@@H]1OC(=O)c1ccco1 (stereo partly specified)", "HL-60(TB) leukemia", "%", 91.9],
  ["O=C(COc1ccc(C2SCC(=O)N2c2ccc(F)cc2)cc1)c1ccccc1 (stereo unspecified)", "HL-60(TB) leukemia", "%", 98.6],
  ["Clc1ccc2c(NCCCN3CCOCC3)c3oc4ccc(Cl)cc4c3nc2c1", "HL-60(TB) leukemia", "%", 67.7],
  ["CC(=O)O[C@@H]1C(=O)N(c2cnccn2)[C@H]1c1ccccc1[N+](=O)[O-]", "HL-60(TB) leukemia", "%", -30.4]
]}

Answer for every listed entry: what is its growth? The entries follow.
1. COc1ccc(S(=O)(=O)n2cc(C=O)c3ccccc32)c(OC)c1
2. Cc1cccc(NC(c2cc3cccc4ccc5cccc2c5c43)c2nnnn2C(C)(C)C)c1C (stereo unspecified)

Found:
[4.32, 91.9]

Answer for every listed entry: what is its growth? The entries follow.
1. CC(C)C[C@@H]1N[C@@]2(C(=O)Nc3ccccc32)[C@@H](c2ccc(F)cc2)[C@@H]1C(=O)c1ccc(O)cc1
2. O=C(/C=C1\C=CN(CCCCCCF)c2ccccc21)n1ccc2ccccc21
3. Nn1c(N/N=C/c2nc3ccccc3s2)n[nH]c1=S
4. COC(=O)[C@H]1[C@@H](O)[C@@]2(O)c3c(OC)cc(OC)cc3O[C@@]2(c2ccc(OC)cc2)[C@@H]1c1ccccc1
5. CCCCCc1ccc(S(=O)(=O)Nc2cccc(-c3csc(NC(=O)CCCCCN4CCN(C)CC4)n3)c2)cc1
6. COc1cc(CNC(=O)Cc2ccccc2[N+](=O)[O-])ccc1OCC(=O)NO

Found:
1: 105; 2: 109; 3: 136; 4: -21.8; 5: -41.5; 6: 118

Answer for every listed entry: what is its growth? The entries follow.
1. COc1c(N2CC3CCCNC3C2)c(F)cc2c(=O)c(C(=O)N/N=C/c3ccc(N(C)C)cc3)cn(C3CC3)c12 (stereo unspecified)
2. CCc1cccc(NC(=O)CNc2cc(S(=O)(=O)N(C)C)cc(C)c2C)c1

Found:
78.5
128

Answer for every listed entry: what is its growth? The entries follow.
1. O=C(N/N=C/c1ccc([N+](=O)[O-])o1)c1[nH]c2ccc(Br)cc2c1-c1ccccc1
2. COc1ccc(C(=O)/C=C/c2ccc(OCc3ccc(Cl)cc3)c(OC)c2)cc1OC
3. CC(O)c1cccc(/C(N)=N/C(N)=N/c2nc3ccccc3s2)c1 (stereo unspecified)
4. COc1cccc(N2CCN(c3ncnc4c3[nH]c3ccc(F)cc34)C[C@H]2C)c1

Found:
1. -42.1
2. 4.56
3. 84.5
4. 33

Answer for every listed entry: what is its growth? The entries follow.
1. Cn1ccnc1C(=O)/C=C/C=C/c1ccc(C(=O)Nc2ccc(F)cc2)cc1
2. C#CCOc1cccc(-c2nc(N)nc(Nc3ccccc3SSc3ccccc3Nc3nc(N)nc(-c4cccc(OCC#C)c4)n3)n2)c1
3. COc1ccc(CCOc2cc3c(cc2OC)CCN(C(=O)NCc2cocn2)C3c2ccc(C)cc2C)cc1 (stereo unspecified)
4. NC1=NC2(CCCC2)N(c2ccc(S(=O)(=O)Nc3nccs3)cc2)C(N)=N1
5. C#Cc1nc(C(C)=O)cs1
6. NNc1nnc2nc(Nc3ccccc3)nc(Nc3ccc(S(N)(=O)=O)cc3)n12
7. CCOC(=O)Nc1ccc(-c2nc(-c3cccc(O)c3)c(-c3ccnc(Br)c3)[nH]2)cc1
8. O=C(CSc1nc2ccccc2c(=O)n1-c1ccccc1)N/N=C/c1ccc(Oc2ccc(Cl)cc2)cc1

Found:
13.3
23.7
5.9
102
100
108
-11.1
106

Answer for every listed entry: what is its growth? The entries follow.
1. COc1ccc(-c2nc3cc(Cl)c(Cl)cc3n2CC(=O)N=Nc2c(O)[nH]c3ccccc23)cc1
2. COC(=O)CCCNCCCn1ccc2cc(NCc3cccc(-c4ccccc4)c3C)ccc21
3. Cc1cc(C(=O)Nc2ccc(SC#N)cc2)c(C)o1
4. O=S(=O)(NCCCNc1nccc(-c2[nH]c(-c3ccccc3)nc2-c2ccc(F)c(O)c2)n1)c1cccc2ccccc12

Found:
1: 92.5; 2: 16.7; 3: 47.7; 4: 59.4

---

Hi there, I'd appreciate the recorded growth for every entry that follows.
System: HL-60(TB) leukemia
Experiment: NCI-60 one-dose screen, 48 h (100 = growth as untreated, 0 = no growth, -100 = all killed)
Details: 10 µM unless noted
Description: Growth inhibition of the HL-60(TB) human tumor cell line is measured as a screen for anti-cancer activity. Cells are grown in 96 well plates and exposed to the test compound for 48 hours. Compounds are tested at a single concentration, which is 10^-5 M for most compounds. The reported endpoint is percent growth (GI% or GIPRCNT), where numbers from 0 - 100% represent growth inhibition, and numbers from -100% - 0 represent cell death. For example, a value of 40 represents 60% growth inhibition. […]
Compounds without any hit were thinned out: in the full panel of roughly 83,000, 20% have a hit.
One number for each entry, in %.

{"columns": ["COMPOUND", "PARAMETER", "MEASURED VALUE"],
 "data": [
  ["COc1cc(/C=C/C(=O)c2ccc(NC(=O)COc3cccc4cccnc34)cc2)cc(OC)c1OC", "growth", 34.7]
]}

Answer for every listed entry: what is its growth? The entries follow.
1. Cn1ccnc1C(=O)/C=C/c1ccc(CNC(=O)c2c(F)c(F)c(F)c(F)c2F)cc1
2. O=C1Nc2ccc(Br)cc2/C1=N\c1nnc(-c2ccc(Cl)cc2)o1
3. COc1ccc([C@@H]2c3[nH]c4ccccc4c3C[C@H]3C(=O)N(C4CCN(CC5CCCCC5)CC4)CC(=O)N23)c(OC)c1
4. Nc1cc(-c2c[nH]c3ccccc23)nc2cc(-c3c[nH]c4ccccc34)nn12
5. Cc1ccc(NC2=C(Cl)C(=O)c3nc(C)ccc3C2=O)c(C)c1
6. CC1(C)CC[C@]23CC[C@]4(C)[C@H](CC[C@@H]5[C@@]6(C)CC[C@H](NCO)C(C)(C)[C@@H]6CC[C@]54C)[C@H]2[C@H]1OC3
7. CC1(C)CC[C@]23CC[C@]4(C)[C@H](CC[C@@H]5[C@@]6(C)CC[C@H](N)C(C)(C)[C@@H]6CC[C@]54C)[C@H]2[C@H]1OC3
8. O=C(CCCCCCN1CC(=O)N2[C@@H](c3cccc(Br)c3)c3[nH]c4ccccc4c3C[C@H]2C1=O)NO

Found:
[20, 11.1, 47.7, 40.1, -14.8, 4.17, -38.4, 6.52]

Answer for every listed entry: what is its growth? The entries follow.
1. O=C(Nc1cc(Cl)cc(Cl)c1)Nc1ccc2oc(=O)ccc2c1
2. C#C[C@]1(O)CC[C@H]2[C@@H]3CC=C4c5sc(Nc6nc(C)cc(OC)n6)nc5CC[C@]4(C)[C@H]3CC[C@@]21C
3. C#CCOc1ccccc1/C=N/Nc1nc(-c2ccc(Cl)cc2)cs1
4. COc1ccc(C(=O)c2c(N)c(C#N)cn2-c2ccc(Cl)cc2Cl)cc1
5. CCNC(=O)N1CCc2cc(OC)c(OCCc3ccc(OC)c(N)c3)cc2C1c1ccc(C)cc1C (stereo unspecified)
6. Cc1ccc(S(=O)(=O)N(CC[C@@H]2C[C@H]2c2cc3ccccc3o2)S(=O)(=O)c2ccc(C)cc2)cc1
7. CCCCCCOC(=O)c1cc(-c2ccc(F)cc2)nc2ccccc12

Found:
[0.984, 12.1, 90.8, 84.7, 16.5, 64.6, 77.8]

Answer for every listed entry: what is its growth? The entries follow.
1. O=C(NNc1nc2cc(F)ccc2n2c(CN3CC4(COC4)C3)ccc12)c1cnccn1
2. COc1cc(-c2nc(-c3ccccc3)[nH]c2-c2ccnc(NCCCNS(=O)(=O)c3ccc(C)cc3)n2)ccc1F
3. CCN(CC)CCOc1ccc(C(=C(C)c2ccc(OC)cc2)c2ccc(OCCN(CC)CC)cc2)cc1
4. Oc1ccccc1-c1nnc(SCc2ccc(O)c3ncccc23)o1
5. CC(=O)Nc1ccccc1-c1nc2ccccc2s1
6. COc1ccccc1-n1cc(C#N)c(N)c1C(=O)c1ccc(Cl)cc1
7. COc1ccc(OC)c([C@H]2c3[nH]c4ccccc4c3C[C@H]3C(=O)N(CCCCCCC(=O)NO)CC(=O)N23)c1

Found:
[-30.1, 93.4, -42.9, 26.3, 99.5, 36.5, 91.1]

Answer for every listed entry: what is its growth? The entries follow.
1. CC(C)Sc1nc(NC2CC2)c(C#N)c(-c2ccccc2)n1
2. CC1=CC(=O)C2=C(C)CC(OC(=O)CCc3ccccc3)[C@@H]3[C@H](OC(=O)[C@@H]3C)[C@@H]12 (stereo partly specified)
3. Cc1ccc(Nc2ncnc3c2c(C)nn3-c2ccc([N+](=O)[O-])cc2)cc1

Found:
1. 112
2. 87.9
3. 96.7
